Entries and their intrinsic clearance, human liver microsomes
parameter.measured: intrinsic clearance, human liver microsomes (mL/min/kg)

{"columns": ["smi", "censor.symbol", "data.value"],
 "data": [
  ["COc1ccccc1-c1nc(C(=O)O)cs1", "≤", 4.74],
  ["CCOc1ccc(NC(=O)c2ccc3c(c2)NC(=O)CO3)cc1", "≤", 4.74],
  ["COc1nn(C)cc1C(=O)Nc1cccc2cnccc12", "=", 99.7],
  ["CC(C)Oc1ccc(CCNC(=O)N2CCC[C@H]2C(=O)N2CCCCC2)cc1", "=", 19.7],
  ["C[C@@H]1CN(Cc2ccccc2)C[C@H]1c1nc2c(cnn2C2CCOCC2)c(=O)[nH]1", "=", 36.3],
  ["Cc1nc(-c2ccccc2)ccc1C(=O)NC1CCCC1", "≤", 4.74],
  ["CC(=O)N1CCC(Nc2ncnc3cc(-c4ccc(Br)cc4)sc23)CC1", "=", 6.41],
  ["N#Cc1ccc2[nH]c(O)c(-c3ccc(CN4CCOCC4)cn3)c2c1", "=", 11.2],
  ["COc1cc2cc3c(nc2cc1OC)OCCN(C1CCCCC1)C3", "=", 33.2],
  ["CC1(c2ccn[nH]2)CCN(Cc2ccco2)CC1", "≤", 4.74],
  ["N#Cc1ccc(OC2CCNCC2)cc1", "≤", 4.74]
]}

###

// values below are reported intrinsic clearance, human liver microsomes
parameter.measured: intrinsic clearance, human liver microsomes

{"columns": ["smi", "data.value"],
 "data": [
  ["CONC(=O)c1c2c(nc3ccccc13)CCC2", "≤ 4.74 mL/min/kg"],
  ["Cc1cccnc1NC(=O)CCn1cnc2ccccc21", "≤ 4.74 mL/min/kg"],
  ["Cc1c(C(=O)NCCCN(C)C)sc2ncnc(Nc3ccc(F)cc3OC(C)C)c12", "≤ 4.74 mL/min/kg"],
  ["O=C(c1cc(F)ccc1F)N1CCN(C(=O)C2CC2)CC1", "≤ 4.74 mL/min/kg"],
  ["CCNC(=O)c1ccc(-c2cc(C)cc(OC)c2OC)nc1", "≤ 4.74 mL/min/kg"]
]}

###

Reported intrinsic clearance, human liver microsomes is given for each of the following compounds.
parameter.measured: intrinsic clearance, human liver microsomes

{"columns": ["smi", "data.value"],
 "data": [
  ["O=C(O)c1cc(/C=C/c2csnn2)nc2ccccc12", "≤ 4.74 mL/min/kg"],
  ["Cc1cc(C)c2c(C(=O)N3CC4(CNC(=O)N4)C3)cc(C)nc2c1", "≤ 4.74 mL/min/kg"],
  ["Nc1nc(CN2CCN(c3ccc(F)cc3)CC2)cs1", "≤ 4.74 mL/min/kg"],
  ["CCCn1cnnc1CN(C)Cc1ccc(C(F)(F)F)nc1", "≤ 4.74 mL/min/kg"],
  ["Cc1nc(NCc2ccc(F)cc2)n(C)n1", "≤ 4.74 mL/min/kg"],
  ["COc1cccc(CN2CCc3nc(-c4cnc(C)cn4)nc(O)c3C2)c1", "≤ 4.74 mL/min/kg"],
  ["C[C@@H](CO)Nc1nc(C(F)(F)F)nc2[nH]cnc12", "≤ 4.74 mL/min/kg"],
  ["Cc1cc(C)c2ccc(C(=O)N3CCN(c4ncc[nH]c4=O)CC3)cc2n1", "≤ 4.74 mL/min/kg"]
]}

###

Threshold check on intrinsic clearance, rat liver microsomes: strictly below 900 mL/min/kg is class 1; on or above 900 mL/min/kg is class 0.

{"columns": ["molecule", "classification"],
 "data": [
  ["O=C(CSc1ccccn1)N1CCSc2ccccc21", "class 0"],
  ["Cc1cc(C(=O)N2CCOC(C)(C)C2)cc(C)c1OCc1cccnc1", "class 0"],
  ["COc1ccc(CNc2c(-c3ccc(OC)c(OC)c3)nc3cnccn23)cc1", "class 0"],
  ["Cc1cccc(N(C)Cc2cnc(N(C)C)nc2)n1", "class 0"],
  ["CSc1ncccc1C(=O)Nc1ccc(N2CCCCC2=O)cc1", "class 1"],
  ["Cc1ncccc1NC(=O)OC(C)(C)C", "class 1"],
  ["CCSCc1nc(N)c2ccccc2n1", "class 1"],
  ["CC(=O)N(C)[C@H]1CC2(CCN(C(=O)COc3ccc(F)cc3F)CC2)OC[C@]1(C)O", "class 1"],
  ["CCN(CC)CC(=O)N1CCC(n2c(=O)[nH]c3ccccc32)CC1", "class 1"],
  ["O=S(=O)(NCCC(c1ccccc1)c1ccccc1)c1ccc(Cl)cc1", "class 0"],
  ["COCCCNc1ncc(-c2cc(C)no2)c(C(C)C)n1", "class 0"],
  ["OCC1CCCCN1Cc1ccc(Cl)c(Cl)c1 (stereo not drawn)", "class 1"],
  ["Nc1c(F)ccc2cnc(-n3ccc4ccncc43)cc12", "class 0"],
  ["O=c1n(CCc2ccncc2)nnn1-c1ccccc1", "class 1"],
  ["COc1cn(-c2ccc(-n3cccn3)cc2F)nc(-c2ccnn2-c2ccccc2)c1=O", "class 1"],
  ["Cc1cc(N2CCCC2c2cc(CCC(=O)O)cc(C)n2)ncn1 (stereo not drawn)", "class 1"],
  ["Cn1ccc(C(=O)NCCc2cc3nc(-c4ccncc4)ccn3n2)n1", "class 1"]
]}
